Target: Dmel\Orco (Drosophila melanogaster, UniProt Q9VNB5)
Construct: expressed in transfected cells; host or cells: Xenopus laevis oocytes (cRNA injection, pGEMHE)
Sequence (Q9VNB5 1-486): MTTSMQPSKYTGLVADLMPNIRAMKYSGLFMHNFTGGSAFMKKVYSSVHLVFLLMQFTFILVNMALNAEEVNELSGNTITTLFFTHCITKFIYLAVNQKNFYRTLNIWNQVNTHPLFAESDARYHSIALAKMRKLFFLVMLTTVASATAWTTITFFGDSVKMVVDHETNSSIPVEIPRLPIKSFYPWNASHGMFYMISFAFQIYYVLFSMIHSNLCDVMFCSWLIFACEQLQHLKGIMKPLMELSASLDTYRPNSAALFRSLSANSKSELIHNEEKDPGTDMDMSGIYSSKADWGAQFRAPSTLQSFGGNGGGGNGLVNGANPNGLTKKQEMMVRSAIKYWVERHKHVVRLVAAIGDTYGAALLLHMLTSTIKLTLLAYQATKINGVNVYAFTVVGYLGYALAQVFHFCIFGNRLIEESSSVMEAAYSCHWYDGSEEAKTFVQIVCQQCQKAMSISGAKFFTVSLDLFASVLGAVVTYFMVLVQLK
Assay: Agonist activation of homomeric Dmel\Orco in Xenopus oocytes, two-electrode voltage clamp
Assay type: cell-based
Conditions: 100 µM compound; mean ± SEM, n=3-8
Below: a set of entries, each annotated with reported Response amplitude as percentage of response to 100 µM OLC3, Dmel\Orco.
Supply the numeric figure in %, leaving out any unit text.

Reference set, count: 2
Query :: Fill in: Response amplitude as percentage of response to 100 µM OLC3, Dmel\Orco of `Sc1nnc(-c2cccnc2)[nH]1` is ___
Result :: 0

Query :: Fill in: Response amplitude as percentage of response to 100 µM OLC3, Dmel\Orco of `C=CCn1c(S)nnc1-c1cccnc1` is ___
Result :: 0

// below: Response amplitude as percentage of response to 100 µM OLC3, Dmel\Orco requested for another compound
Query :: Fill in: Response amplitude as percentage of response to 100 µM OLC3, Dmel\Orco of `CCn1c(SCC(=O)Nc2ccc(C)c(C)c2)nnc1-c1ccncc1` is ___
Result :: 0

* * *

target: Cqui\Orco + Cqui\Or10 (Culex quinquefasciatus, UniProt D5LMR7+Q309I4); experiment: Activation of Cqui\Orco + Cqui\Or10 in Xenopus oocytes, two-electrode voltage clamp; assay type: cell-based; details: 100 µM compound; mean ± SEM, n=3-8; read-out: Response amplitude as percentage of response to 100 µM OLC3, Cqui\Orco + Cqui\Or10
Sequence (D5LMR7 entry or part of it): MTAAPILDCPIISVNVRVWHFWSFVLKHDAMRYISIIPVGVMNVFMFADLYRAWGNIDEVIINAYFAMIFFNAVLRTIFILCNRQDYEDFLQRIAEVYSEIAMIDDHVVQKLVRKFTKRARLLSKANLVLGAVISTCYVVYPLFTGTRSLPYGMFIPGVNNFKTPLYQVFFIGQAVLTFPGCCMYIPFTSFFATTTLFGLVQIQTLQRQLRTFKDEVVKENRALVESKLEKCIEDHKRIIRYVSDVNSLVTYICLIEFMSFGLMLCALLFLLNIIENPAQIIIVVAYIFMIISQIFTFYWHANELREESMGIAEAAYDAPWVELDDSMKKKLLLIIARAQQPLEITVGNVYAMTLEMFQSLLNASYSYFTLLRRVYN
Sequence (Q309I4 entry or part of it): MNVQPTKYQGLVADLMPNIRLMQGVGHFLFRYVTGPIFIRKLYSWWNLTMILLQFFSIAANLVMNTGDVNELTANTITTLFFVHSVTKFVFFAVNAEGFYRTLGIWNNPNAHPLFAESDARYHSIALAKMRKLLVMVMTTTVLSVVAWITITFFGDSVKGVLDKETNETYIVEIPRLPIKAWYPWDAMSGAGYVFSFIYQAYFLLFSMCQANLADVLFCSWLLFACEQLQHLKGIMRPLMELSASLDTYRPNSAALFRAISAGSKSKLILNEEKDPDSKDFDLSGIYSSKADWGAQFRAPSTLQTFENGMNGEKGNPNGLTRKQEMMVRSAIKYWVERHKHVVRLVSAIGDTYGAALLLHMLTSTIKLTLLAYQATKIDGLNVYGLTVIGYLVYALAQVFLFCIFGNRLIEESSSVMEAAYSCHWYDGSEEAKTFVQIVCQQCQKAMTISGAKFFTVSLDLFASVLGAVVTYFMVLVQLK
endpoint-label: Emax at 100 µM (%)
Supply the numeric figure in %, leaving out any unit text.

Reference set, count: 3
Query :: Fill in: Emax at 100 µM of CCCCc1ccc(NC(=O)CSc2nnc(-c3ccccn3)n2CC)cc1 [OLC15] is ___
Result :: 0

Query :: Fill in: Emax at 100 µM of CCn1c(SCC(=O)Nc2ccc(N(C)C)cc2)nnc1-c1ccncc1 [OLC14] is ___
Result :: 12

Query :: Fill in: Emax at 100 µM of CCCCc1ccc(NC(=O)CSc2nnc(-c3cccnc3)n2CC)cc1 [OLC9] is ___
Result :: 0

// below: Emax at 100 µM requested for another molecule
Query :: Fill in: Emax at 100 µM of CCc1ccc(NC(=O)c2cccs2)cc1 [OLC20] is ___
Result :: 11

* * *

Below: a set of entries, each annotated with reported Response amplitude as percentage of response to 100 µM OLC3, Dmel\Orco + Dmel\Or35a.
Molecular target: Dmel\Orco + Dmel\Or35a (Drosophila melanogaster)
Construct: expressed in transfected cells; host or cells: Xenopus laevis oocytes (cRNA injection, pGEMHE)
Assay: Agonist activation of Dmel\Orco + Dmel\Or35a in Xenopus oocytes, two-electrode voltage clamp
Type: cell-based
Settings: 100 µM compound; mean ± SEM, n=3-8
Method: Oocytes were surgically removed from mature Xenopus laevis frogs. Follicle cells were removed by treatment with Collagenase B (Boehringer Mannhem) for 2 hours at room temperature. Capped cRNA encoding each DmOR subunit was generated using mMessage mMachine kits (Ambion). […] Odorant and Orco ligand induced currents were recorded under two-electrode voltage clamp in Xenopus laevis oocytes expressing ORs, using an automated parallel electrophysiology system (OpusExpress 6000A; Molecular Devices). […]
Supply the numeric figure in %, leaving out any unit text.

Reference set, count: 5
Query :: Fill in: Response amplitude as percentage of response to 100 µM OLC3, Dmel\Orco + Dmel\Or35a of CCc1ccc(NC(C)=O)cc1 [OLC19] is ___
Result :: 0

Query :: Fill in: Response amplitude as percentage of response to 100 µM OLC3, Dmel\Orco + Dmel\Or35a of CCc1ccc(NC(=O)CSc2nnc(-c3cnccn3)n2CC)cc1 [OLC4] is ___
Result :: 4

Query :: Fill in: Response amplitude as percentage of response to 100 µM OLC3, Dmel\Orco + Dmel\Or35a of CC(C)c1ccc(NC(=O)CSc2nnnn2C)cc1 [OLC21] is ___
Result :: 0

Query :: Fill in: Response amplitude as percentage of response to 100 µM OLC3, Dmel\Orco + Dmel\Or35a of CCn1c(SCC(=O)Nc2ccc(Cl)cc2)nnc1-c1cccnc1 [OLC11] is ___
Result :: 13

Query :: Fill in: Response amplitude as percentage of response to 100 µM OLC3, Dmel\Orco + Dmel\Or35a of CCn1c(SCC(=O)Nc2cccc(C)c2)nnc1-c1cccnc1 [OLC6] is ___
Result :: 0

// below: Response amplitude as percentage of response to 100 µM OLC3, Dmel\Orco + Dmel\Or35a requested for another compound
Query :: Fill in: Response amplitude as percentage of response to 100 µM OLC3, Dmel\Orco + Dmel\Or35a of CCn1c(SCC(=O)Nc2ccc(C)cc2)nnc1-c1cccnc1 [OLC5] is ___
Result :: 4

* * *

Target: Cqui\Orco + Cqui\Or10 (Culex quinquefasciatus, UniProt D5LMR7+Q309I4)
Experiment: Activation of Cqui\Orco + Cqui\Or10 in Xenopus oocytes, two-electrode voltage clamp
Format: cell-based
Settings: 100 µM compound; mean ± SEM, n=3-8; read-out: Response amplitude as percentage of response to 100 µM OLC3, Cqui\Orco + Cqui\Or10
Experimental: Oocytes were surgically removed from mature Xenopus laevis frogs. Follicle cells were removed by treatment with Collagenase B (Boehringer Mannhem) for 2 hours at room temperature. Capped cRNA encoding each DmOR subunit was generated using mMessage mMachine kits (Ambion). […] Odorant and Orco ligand induced currents were recorded under two-electrode voltage clamp in Xenopus laevis oocytes expressing ORs, using an automated parallel electrophysiology system (OpusExpress 6000A; Molecular Devices). […]
endpoint-label: Emax at 100 µM (%)
Supply the numeric figure in %, leaving out any unit text.

Query :: Fill in: Emax at 100 µM of `CCc1ccc(NC(=O)CSc2nnc(-c3ccccn3)n2CC)cc1` is ___
Result :: 0

Query :: Fill in: Emax at 100 µM of CCc1ccc(NC(=O)CSc2nnc(-c3cccnc3)n2CC)cc1 [VUAA1, reference compound] is ___
Result :: 75

Query :: Fill in: Emax at 100 µM of `CCn1c(SCC(=O)Nc2ccc(C(C)C)cc2)nnc1-c1ccncc1` is ___
Result :: 289

Query :: Fill in: Emax at 100 µM of `CCCCc1ccc(NC(=O)c2cccs2)cc1` is ___
Result :: 0

// below: Emax at 100 µM requested for another molecule
Query :: Fill in: Emax at 100 µM of `CCc1ccc(NC(=O)CSc2nnc(-c3ccncc3)n2CC)cc1` is ___
Result :: 100

* * *

biological target: Cqui\Orco + Cqui\Or10 (Culex quinquefasciatus, UniProt D5LMR7+Q309I4); test: Activation of Cqui\Orco + Cqui\Or10 in Xenopus oocytes, two-electrode voltage clamp; assay type: cell-based; details: 100 µM compound; mean ± SEM, n=3-8
endpoint-label: Response amplitude as percentage of response to 100 µM OLC3, Cqui\Orco + Cqui\Or10 (%)
Supply the numeric figure in %, leaving out any unit text.

Reference set, count: 4
Query :: What value of Response amplitude as percentage of response to 100 µM OLC3, Cqui\Orco + Cqui\Or10 on Cqui\Orco + Cqui\Or10 (Culex quinquefasciatus, UniProt D5LMR7+Q309I4) does C=CCn1c(S)nnc1-c1cccnc1 [OLC17] have?
Result :: 0

Query :: What value of Response amplitude as percentage of response to 100 µM OLC3, Cqui\Orco + Cqui\Or10 on Cqui\Orco + Cqui\Or10 (Culex quinquefasciatus, UniProt D5LMR7+Q309I4) does CCn1c(SCC(=O)Nc2ccc(C)c(C)c2)nnc1-c1ccncc1 [OLC13] have?
Result :: 0

Query :: What value of Response amplitude as percentage of response to 100 µM OLC3, Cqui\Orco + Cqui\Or10 on Cqui\Orco + Cqui\Or10 (Culex quinquefasciatus, UniProt D5LMR7+Q309I4) does CC(C)c1ccc(NC(=O)CSc2nnnn2C)cc1 [OLC21] have?
Result :: 0

Query :: What value of Response amplitude as percentage of response to 100 µM OLC3, Cqui\Orco + Cqui\Or10 on Cqui\Orco + Cqui\Or10 (Culex quinquefasciatus, UniProt D5LMR7+Q309I4) does Cn1cnnc1-c1ccncc1 [OLC18] have?
Result :: 0

Continuing:
Query :: What value of Response amplitude as percentage of response to 100 µM OLC3, Cqui\Orco + Cqui\Or10 on Cqui\Orco + Cqui\Or10 (Culex quinquefasciatus, UniProt D5LMR7+Q309I4) does CCc1ccccc1NC(=O)CSc1nnc(-c2cccnc2)n1CC [OLC8] have?
Result :: 0

Query :: What value of Response amplitude as percentage of response to 100 µM OLC3, Cqui\Orco + Cqui\Or10 on Cqui\Orco + Cqui\Or10 (Culex quinquefasciatus, UniProt D5LMR7+Q309I4) does CCn1c(SCC(=O)Nc2ccc(Cl)cc2)nnc1-c1cccnc1 [OLC11] have?
Result :: 13

Query :: What value of Response amplitude as percentage of response to 100 µM OLC3, Cqui\Orco + Cqui\Or10 on Cqui\Orco + Cqui\Or10 (Culex quinquefasciatus, UniProt D5LMR7+Q309I4) does CCn1c(SCC(=O)Nc2cccc(C)c2)nnc1-c1cccnc1 [OLC6] have?
Result :: 0

Query :: What value of Response amplitude as percentage of response to 100 µM OLC3, Cqui\Orco + Cqui\Or10 on Cqui\Orco + Cqui\Or10 (Culex quinquefasciatus, UniProt D5LMR7+Q309I4) does CCn1c(SCC(=O)Nc2ccc(C)cc2)nnc1-c1cccnc1 [OLC5] have?
Result :: 16

Query :: What value of Response amplitude as percentage of response to 100 µM OLC3, Cqui\Orco + Cqui\Or10 on Cqui\Orco + Cqui\Or10 (Culex quinquefasciatus, UniProt D5LMR7+Q309I4) does Sc1nnc(-c2cccnc2)[nH]1 [OLC16] have?
Result :: 0

Query :: What value of Response amplitude as percentage of response to 100 µM OLC3, Cqui\Orco + Cqui\Or10 on Cqui\Orco + Cqui\Or10 (Culex quinquefasciatus, UniProt D5LMR7+Q309I4) does Cc1nnc(-c2ccccn2)[nH]1 [OLC23] have?
Result :: 8

Query :: What value of Response amplitude as percentage of response to 100 µM OLC3, Cqui\Orco + Cqui\Or10 on Cqui\Orco + Cqui\Or10 (Culex quinquefasciatus, UniProt D5LMR7+Q309I4) does CCc1ccc(NC(C)=O)cc1 [OLC19] have?
Result :: 0

Query :: What value of Response amplitude as percentage of response to 100 µM OLC3, Cqui\Orco + Cqui\Or10 on Cqui\Orco + Cqui\Or10 (Culex quinquefasciatus, UniProt D5LMR7+Q309I4) does CCn1c(SCC(=O)Nc2ccc(Br)cc2)nnc1-c1cccnc1 [OLC10] have?
Result :: 27

Query :: What value of Response amplitude as percentage of response to 100 µM OLC3, Cqui\Orco + Cqui\Or10 on Cqui\Orco + Cqui\Or10 (Culex quinquefasciatus, UniProt D5LMR7+Q309I4) does CCc1ccc(NC(=O)CSc2nnc(-c3cnccn3)n2CC)cc1 [OLC4] have?
Result :: 0

Query :: What value of Response amplitude as percentage of response to 100 µM OLC3, Cqui\Orco + Cqui\Or10 on Cqui\Orco + Cqui\Or10 (Culex quinquefasciatus, UniProt D5LMR7+Q309I4) does CCn1c(SCC(=O)Nc2ccc(OC)cc2)nnc1-c1cccnc1 [OLC7] have?
Result :: 4
